Biological target: htau40 (Homo sapiens, UniProt P10636)
Construct: polyhistidine; made in house
Sequence (P10636 1-441 isoform P10636-8): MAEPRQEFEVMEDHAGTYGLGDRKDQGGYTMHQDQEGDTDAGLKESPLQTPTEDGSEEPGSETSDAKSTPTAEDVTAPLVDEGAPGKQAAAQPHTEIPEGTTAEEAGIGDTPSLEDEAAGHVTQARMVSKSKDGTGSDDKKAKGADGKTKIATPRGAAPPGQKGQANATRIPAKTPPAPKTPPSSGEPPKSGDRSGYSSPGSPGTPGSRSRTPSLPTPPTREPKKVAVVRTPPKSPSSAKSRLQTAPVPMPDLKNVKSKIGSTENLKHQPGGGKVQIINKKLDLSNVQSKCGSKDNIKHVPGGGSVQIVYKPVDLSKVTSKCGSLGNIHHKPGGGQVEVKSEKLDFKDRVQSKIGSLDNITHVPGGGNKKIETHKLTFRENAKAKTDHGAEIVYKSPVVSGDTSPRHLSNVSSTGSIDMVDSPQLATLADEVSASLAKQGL
Assay: Tau aggregation: arachidonic acid-induced htau40 fibrillization, quantitative transmission electron microscopy
Format: biochemical
Conditions: htau40 4 μM, arachidonic acid 75 μM, 3.5 hours at 37° C., N744 0.12-4.1 μM; read-out: IC50, inhibition of total filament number
outcomeMeasure: IC50 (µM)
Please give a number only; it is taken to be in µM.

So what IC50 did CCC(/C=C1\Sc2ccc(OC)cc2N1CCO)=C\c1sc2ccc(OC)cc2[n+]1CCO get with htau40 (Homo sapiens, UniProt P10636)? 0.272
